# protocol text: Bmi1 luciferase reporter increase in mESCs, primary screen, esBAF inhibitor project, mouse ES cells, Bmi1 luciferase knock-in, single point (AID 602393);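 note: 0% = median of the plate's neutral control wells and 100% = double that signal; a rise in the Bmi1 reporter signal indicates esBAF inhibition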
# settings: 24 h, at 12.5 µM, 100% = twice the neutral-well signal
Among all 350,000 compounds or so, about 7,000 (2%) were called active. Cut-off read from the data, not from the text of the source: active = activation above about 40%; inconclusive = no clear call, values can overlap the other calls; inactive = below that. The entries come from a sample that favours actives as a whole.
Select the matching outcome among y = active, n = inactive

Ask: Per the records of this test, what outcome belongs to `CCc1ccc(NC(=O)Nc2ccncc2)cc1` ?
Reply: n

Ask: Per the records of this test, what outcome belongs to `C[C@@H]1CN([C@@H](C)CO)C(=O)c2cc(NC(=O)Nc3ccc4c(c3)OCO4)ccc2O[C@@H](C)CCCCO[C@@H]1CN(C)C(=O)Nc1ccc2c(c1)OCO2` ?
Reply: y

Ask: Per the records of this test, what outcome belongs to `COc1cccc(NC(=O)Nc2ccc(F)cc2)c1` ?
Reply: y

Ask: Per the records of this test, what outcome belongs to `COc1cccc(C(=O)NNC(=O)c2cccc(F)c2)c1` ?
Reply: y

Ask: Per the records of this test, what outcome belongs to `COc1cccc(C(=O)NNC(=O)/C=C/c2ccccc2)c1` ?
Reply: n

Ask: Per the records of this test, what outcome belongs to `C[C@H](CO)N1C[C@H](C)[C@@H](CN(C)C(=O)Nc2ccc3c(c2)OCO3)OCCCC[C@H](C)Oc2ccc(NC(=O)Nc3ccc(F)cc3)cc2C1=O` ?
Reply: n

Ask: Per the records of this test, what outcome belongs to COc1cccc(NC(=O)CC2C(=O)NCCN2C(=S)Nc2ccc(F)cc2)c1 (stereo unspecified) ?
Reply: n

Ask: Per the records of this test, what outcome belongs to `COc1cccc(CNC(=O)[C@@H]2[C@@H](CO)[C@@H]3Cn4c(ccc(-c5cccnc5)c4=O)[C@@H]3N2C)c1` ?
Reply: n

Ask: Per the records of this test, what outcome belongs to `COc1cccc(C(=O)NNS(=O)(=O)c2ccc(F)cc2)c1` ?
Reply: n

Ask: Per the records of this test, what outcome belongs to `COc1ccc(NC(=O)Nc2ccc3c(c2)C(=O)N([C@@H](C)CO)C[C@@H](C)[C@H](CN(C)C(=O)CCC(F)(F)F)OCCCC[C@@H](C)O3)cc1` ?
Reply: n

Ask: Per the records of this test, what outcome belongs to `CCC(=O)Nc1ccc(C(=O)Nc2cc(C)on2)cc1` ?
Reply: n

###

# protocol text: Bmi1 luciferase reporter increase in mESCs, primary screen, esBAF inhibitor project, mouse ES cells, Bmi1 luciferase knock-in, single point (AID 602393);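 note: 0% = median of the plate's neutral control wells and 100% = double that signal; a rise in the Bmi1 reporter signal indicates esBAF inhibition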
# settings: 24 h, at 12.5 µM, 100% = twice the neutral-well signal
Out of some 350,000 compounds screened, about 7,000 (2%) were called active. Rule as the data show it: active = activation above about 40%; inconclusive = no clear call, values can overlap the other calls; inactive = below that. The sample as a whole holds a higher share of actives than the screen did.
Select the matching outcome among 1.0 (active), 0.0 (inactive)

Ask: Per the records of this test, what outcome belongs to `Cc1occc1C(=O)Nc1cccc(Cn2cccn2)c1` ?
Reply: 0.0

Ask: Per the records of this test, what outcome belongs to `CCC(=O)N1C[C@@H](C)[C@H](OC)CN(C)C(=O)c2cc(NC(=O)c3cc(C)on3)ccc2OC[C@@H]1C` ?
Reply: 0.0

Ask: Per the records of this test, what outcome belongs to `O=C(Cc1ccccc1)Nc1ccc(C(=O)Nc2ccccc2C(=O)O)cc1` ?
Reply: 0.0

Ask: Per the records of this test, what outcome belongs to `C[C@@H]1CN([C@@H](C)CO)C(=O)Cc2cc(NC(=O)C3CCCCC3)ccc2O[C@H]1CN(C)C(=O)Nc1ccccc1` ?
Reply: 0.0

Ask: Per the records of this test, what outcome belongs to `O=C(C[C@@H]1C[C@H]2c3cc(NS(=O)(=O)c4ccc(F)cc4)ccc3O[C@H]2[C@@H](CO)O1)NCc1ccccc1F` ?
Reply: 0.0

Ask: Per the records of this test, what outcome belongs to Cc1ccc(C)c(S(=O)(=O)N2CCCOC2CNC(=O)C(=O)NC2CCCCC2)c1 (stereo not drawn) ?
Reply: 1.0

Ask: Per the records of this test, what outcome belongs to `COc1ccc(/C(C)=N/NC(=O)c2ccc3nc[nH]c3c2)cc1` ?
Reply: 0.0

Ask: Per the records of this test, what outcome belongs to COc1ccc(C(O)c2nc(-c3ccc4c(c3)OCO4)cs2)cc1 (stereo not drawn) ?
Reply: 0.0

Ask: Per the records of this test, what outcome belongs to O=C(O)CC1=C(Nc2ccccc2)C(=O)N(c2ccccc2)C1c1ccc(Cl)cc1 (stereo not drawn) ?
Reply: 1.0

Ask: Per the records of this test, what outcome belongs to `C[C@@H]1CN([C@H](C)CO)S(=O)(=O)c2ccc(C#CCN(C)C)cc2O[C@@H]1CN(C)C(=O)C1CCCCC1` ?
Reply: 0.0

Ask: Per the records of this test, what outcome belongs to `COc1cccc(S(=O)(=O)N[C@@H]2CC[C@H](CCNC(=O)Cc3ccncc3)O[C@@H]2CO)c1` ?
Reply: 0.0

Ask: Per the records of this test, what outcome belongs to `CO[C@@H](CN(C)S(=O)(=O)c1ccc(F)cc1)[C@H](C)CN(C(=O)Nc1ccccc1F)[C@@H](C)CO` ?
Reply: 0.0

Ask: Per the records of this test, what outcome belongs to `CS(=O)(=O)Nc1ccc2c(c1)[C@@H]1C[C@H](CC(=O)NCc3cc(F)ccc3F)O[C@@H](CO)[C@@H]1O2` ?
Reply: 0.0

Ask: Per the records of this test, what outcome belongs to COc1cc(C(O)c2nc(-c3cccc(C(=O)O)c3)cs2)ccc1F (stereo not drawn) ?
Reply: 0.0

Ask: Per the records of this test, what outcome belongs to O=C(NCCC1CCCCN1S(=O)(=O)c1ccccc1)C(=O)NCC1CCCO1 (stereo not drawn) ?
Reply: 0.0

Ask: Per the records of this test, what outcome belongs to CC(OC(=O)/C=C/c1ccccc1)C(=O)Nc1ccc(C(N)=O)cc1 (stereo not drawn) ?
Reply: 0.0

Ask: Per the records of this test, what outcome belongs to `Cc1csc(NC(=O)C2CCN(S(=O)(=O)c3ccccc3)CC2)n1` ?
Reply: 0.0

Ask: Per the records of this test, what outcome belongs to `CCCNC(=O)N(C)C[C@H]1Oc2cc(C#C[C@@H](C)O)ccc2S(=O)(=O)N([C@H](C)CO)C[C@H]1C` ?
Reply: 0.0

Ask: Per the records of this test, what outcome belongs to `C/C=C/c1cnc2c(c1)C(=O)N([C@@H](C)CO)C[C@H](C)[C@H](CN(C)C(=O)CN1CCOCC1)O2` ?
Reply: 0.0

Ask: Per the records of this test, what outcome belongs to `CO[C@@H]1CN(C)C(=O)c2cc(NC(=O)C3CCCC3)ccc2OC[C@@H](C)N(Cc2ccc(F)cc2)C[C@H]1C` ?
Reply: 0.0

Ask: Per the records of this test, what outcome belongs to `O=C(CNC(=O)c1ccco1)NNC(=O)c1ccc(Br)cc1` ?
Reply: 0.0

Ask: Per the records of this test, what outcome belongs to `O=C(CC(F)(F)F)N1C[C@H]2[C@@H](c3ccccc31)[C@H](CO)N2C(=O)Cc1cccnc1` ?
Reply: 0.0

Ask: Per the records of this test, what outcome belongs to `Cc1nn(C(=O)c2ccoc2C)c(N)c1-c1ccccc1` ?
Reply: 1.0

###

# protocol text: Bmi1 luciferase reporter increase in mESCs, primary screen, esBAF inhibitor project, mouse ES cells, Bmi1 luciferase knock-in, single point (AID 602393);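 note: 0% = median of the plate's neutral control wells and 100% = double that signal; a rise in the Bmi1 reporter signal indicates esBAF inhibition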
# settings: 24 h, at 12.5 µM, stronger effect = higher value, 100% = twice the neutral-well signal
In all, about 350,000 compounds went through this assay and about 7,000 (2%) were called active. The sample as a whole holds a higher share of actives than the screen did.
assay metric: reporter increase (%)
Your answer should be a plain number; it is taken to be in %.

Ask: Tell me the measured reporter increase of `Cc1cc(C(=O)Nc2nnc(C3CC3)s2)c(C)s1` , please.
Reply: 62.3

Ask: Tell me the measured reporter increase of `CNC[C@H]1OCCCC[C@H](C)Oc2ccc(NS(C)(=O)=O)cc2C(=O)N([C@@H](C)CO)C[C@H]1C` , please.
Reply: 3.58

Ask: Tell me the measured reporter increase of O=C(O)C1CC=CCC1C(=O)NCCc1ccccc1 (configuration not stated) , please.
Reply: -11

Ask: Tell me the measured reporter increase of `Clc1cccc(Cl)c1Cn1nnc(-c2cccs2)n1` , please.
Reply: 69.1

Ask: Tell me the measured reporter increase of `CCc1ccccc1OCC(=O)Nc1nnc(C2CC2)s1` , please.
Reply: 1.33

Ask: Tell me the measured reporter increase of `CN1C[C@H]2[C@@H](c3ccccc31)[C@@H](CO)N2C(=O)Nc1ccccc1` , please.
Reply: 3.76

Ask: Tell me the measured reporter increase of `COC(=O)c1c(-c2ccc(C)cc2)csc1N` , please.
Reply: 0.96

Ask: Tell me the measured reporter increase of `Cc1cccc(C(=O)N[C@H](C(=O)NCc2cccs2)C(C)C)c1` , please.
Reply: -4.58

Ask: Tell me the measured reporter increase of `CCCNC(=O)[C@H]1[C@H](CO)[C@H]2Cn3c(ccc(C4=CCCC4)c3=O)[C@H]2N1C(=O)CC` , please.
Reply: -0.965

Ask: Tell me the measured reporter increase of `COc1ccc2c(CC(=O)Nc3nnc(C4CC4)s3)coc2c1` , please.
Reply: 4.79

Ask: Tell me the measured reporter increase of NNC(=O)C1CCCn2c1nc1sc3c(c1c2=O)CCCC3 (configuration not stated) , please.
Reply: 2.26

Ask: Tell me the measured reporter increase of `C[C@H](O)C#Cc1ccc2c(c1)O[C@H](CN(C)C)[C@@H](C)CN([C@H](C)CO)S2(=O)=O` , please.
Reply: -3.76

Ask: Tell me the measured reporter increase of `C[C@@H](NC(=O)[C@H]1[C@H](CO)[C@H]2Cn3c(cccc3=O)[C@H]2N1C(=O)C1CC1)c1ccccc1` , please.
Reply: 2.89

Ask: Tell me the measured reporter increase of CC(Cc1cccs1)NC(=O)NC1CCCCC1 (configuration not stated) , please.
Reply: 17.1

Ask: Tell me the measured reporter increase of O=C(Nc1ccc(Cl)c(Cl)c1)c1ccccc1NC(=O)C1CC=CCC1C(=O)O (configuration not stated) , please.
Reply: 92.4

Ask: Tell me the measured reporter increase of `Cc1ccc(-c2ccc3c(c2)O[C@H](CN(C)C(=O)Nc2ccccc2)[C@@H](C)CN([C@@H](C)CO)S3(=O)=O)cc1` , please.
Reply: -1.56

Ask: Tell me the measured reporter increase of `COc1ccc(Nc2cc(=O)oc3ccccc23)cc1` , please.
Reply: 3.87
